Origin of measurements: patent US8552199B2

Target: UniProt:Q99705
Test: calcium mobilization assay (FLIPR); functional IC50 values of MCH1R antagonists
Settings: recombinant HEK293 cell line expressing the human MCH receptor, cellular calcium flux after addition of agonist (MCH)
MEASURED QUANTITY: IC50 (µM)

Use these answered entries as a reference point.
Task item: What measured IC50 goes with CN(C(=O)c1ccc(OC[C@@H]2CCCO2)cc1)[C@@H]1Cc2ccc(CN3CC4CCC3CC4)cc2C1 ?
Reply: 0.229

Task item: What measured IC50 goes with CN(C(=O)c1ccc(OCC2CC2)cc1)[C@@H]1Cc2ccc(CNCC(C)(C)C)cc2C1 ?
Reply: 0.144

Task item: What measured IC50 goes with CCCCOc1ccc(C(=O)N(C)[C@@H]2Cc3ccc(CNCC4(C)CCOCC4)cc3C2)nc1 ?
Reply: 0.147

A = CN(C(=O)c1ccc(OCC2CC2)cc1)[C@@H]1Cc2ccc(CN3CCC(C(C)(C)O)CC3)cc2C1
B = CN(C(=O)c1ccc(OC[C@@H]2CCCO2)cc1)[C@@H]1Cc2ccc(CNCC(C)(C)C)cc2C1
Task item: Pick one: A or B . Which one has the lower reported IC50? Choose, then provide that item's label.
Reply: B

----------
Molecular target: human MCH receptor (Homo sapiens (Human))
Experiment: calcium mobilization assay (FLIPR); functional IC50 values of MCH1R antagonists
Details: recombinant HEK293 cell line expressing the human MCH receptor, cellular calcium flux after addition of agonist (MCH)
pIC50: −log10 of the molar value.
MEASURED QUANTITY: pIC50

Task item: What measured pIC50 goes with O=C(N[C@@H]1Cc2ccc(CN3CCCCCC3)cc2C1)c1ccc(OC[C@@H]2CCCO2)cn1 [Example 1-50] ?
Reply: 6.12

Task item: What measured pIC50 goes with O=C(N[C@@H]1Cc2ccc(CNCCC3CC3)cc2C1)c1ccc(OCC2CC2)cn1 [Example 1-55] ?
Reply: 6.07

Task item: What measured pIC50 goes with CCN(C)Cc1ccc2c(c1)C[C@H](N(C)C(=O)c1ccc(OCC3CC3)cc1)C2 [Example 1-32] ?
Reply: 6.83

Task item: What measured pIC50 goes with CN(C(=O)c1ccc(OCC2CC2)cc1)[C@@H]1Cc2ccc(CN3CCC3)cc2C1 [Example 1-31] ?
Reply: 6.95

Task item: What measured pIC50 goes with CN(C(=O)c1ccc(OCC2CC2)cc1)[C@@H]1Cc2ccc(CNCC3CCOCC3)cc2C1 [Example 1-15] ?
Reply: 6.91

a = COCCCNCc1ccc2c(c1)C[C@H](N(C)C(=O)c1ccc(OCC3CC3)cc1)C2 [Example 1-27]
b = CC1(CNCc2ccc3c(c2)C[C@H](NC(=O)c2ccc(OCC4CC4)cn2)C3)CC1 [Example 1-58]
c = CCCCOc1ccc(C(=O)N(C)[C@@H]2Cc3ccc([C@H]4CCCN4)cc3C2)cc1 [Example 2]
Task item: Order the entries by their reported pIC50, beginning at the minimum. Form entry: ranked labels (order as requested).
Reply: b, c, a

----------
Molecular target: human MCH receptor (Homo sapiens (Human), UniProt Q99705)
Sequence (Q99705 whole entry): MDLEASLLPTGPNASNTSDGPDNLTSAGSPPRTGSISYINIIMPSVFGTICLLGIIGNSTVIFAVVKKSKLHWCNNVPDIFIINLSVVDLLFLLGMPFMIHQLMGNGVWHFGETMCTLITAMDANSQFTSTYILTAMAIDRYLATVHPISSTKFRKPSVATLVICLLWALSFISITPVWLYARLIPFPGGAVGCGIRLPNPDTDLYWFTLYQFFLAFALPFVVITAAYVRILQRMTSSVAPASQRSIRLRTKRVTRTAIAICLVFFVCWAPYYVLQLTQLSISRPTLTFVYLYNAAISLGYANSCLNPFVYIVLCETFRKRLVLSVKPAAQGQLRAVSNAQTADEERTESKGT
Experiment: calcium mobilization assay (FLIPR); functional IC50 values of MCH1R antagonists
Conditions: recombinant HEK293 cell line expressing the human MCH receptor, cellular calcium flux after addition of agonist (MCH)
pIC50: −log10 of the molar value.
MEASURED QUANTITY: pIC50

Use these answered entries as a reference point.
Task item: What measured pIC50 goes with CCCCOc1ccc(C(=O)N(C)[C@@H]2Cc3ccc(CNC[C@@H]4CCCO4)cc3C2)nc1 ?
Reply: 6.71

Task item: What measured pIC50 goes with CCCCOc1ccc(C(=O)N(C)[C@@H]2Cc3ccc(CN4C[C@@H]5CC[C@H]4C5)cc3C2)nc1 ?
Reply: 6.76

P = CC(C)(C)CNCc1ccc2c(c1)C[C@H](NC(=O)c1ccc(OC[C@@H]3CCCO3)cc1)C2
Q = CN(C(=O)c1ccc(OCC2CC2)cc1)[C@@H]1Cc2ccc(CNCC3(C)CC3)cc2C1
Task item: Pick one: P or Q . Which one has the lower reported pIC50? Choose, then provide that item's label.
Reply: P
(P: 6.65, Q: 6.92)

----------
Target: human MCH receptor (Homo sapiens (Human))
Assay: calcium mobilization assay (FLIPR); functional IC50 values of MCH1R antagonists
Settings: recombinant HEK293 cell line expressing the human MCH receptor, cellular calcium flux after addition of agonist (MCH)
pIC50: −log10 of the molar value.
MEASURED QUANTITY: pIC50

Task item: What measured pIC50 goes with CC[C@H](C)NCc1ccc2c(c1)C[C@H](N(C)C(=O)c1ccc(OCC3CC3)cc1)C2 [Example 1-36] ?
Reply: 6.70

P = CN(C(=O)c1ccc(OCC2CC2)cn1)[C@@H]1Cc2ccc(CN3CCCCC3)cc2C1 [Example 1-81]
Q = O=C1c2ccc(OC[C@@H]3CCCO3)cc2CCN1[C@@H]1Cc2ccc(CNC3CCCCC3)cc2C1 [Example 1-90]
Task item: Pick one: P or Q . Which one has the lower reported pIC50? Choose, then provide that item's label.
Reply: Q
